Values compiled from PubChem BioAssay (NCI).

# Test system: MOLT-4 leukemia
# ASSAY INFO: NCI tumour cell line growth inhibition, 48 h
# TGI >= 20 µM gives true, anything below gives false

query: Could you tell me if the measured TGI of C[N+](C)(C)CC(=O)N/N=C(\C(=O)NC1=C(Cl)C(=O)c2ccccc2C1=O)C(C#N)c1nc(-c2ccc([N+](=O)[O-])cc2)cs1 (stereo not drawn) reaches 20 µM or more?
result: true

query: Could you tell me if the measured TGI of O=C1c2ccccc2C(=O)c2c(Nc3cc4c5c(ccc6c7ccc8c9c(cc(Nc%10cccc%11c%10C(=O)c%10ccccc%10C%11=O)c(c3c56)c97)-c3ccccc3C8=O)C(=O)c3ccccc3-4)cccc21 reaches 20 µM or more?
result: true

query: Could you tell me if the measured TGI of C=C1CC2CC(O)CC(C1)C2 (stereo not drawn) reaches 20 µM or more?
result: true

query: Could you tell me if the measured TGI of O=NNc1ccc(Sc2ccc(NN=O)cn2)nc1 reaches 20 µM or more?
result: true

query: Could you tell me if the measured TGI of CC(=O)OCC1OC(O[C@@H]2C[C@H]3C(C)(C)[C@@H](OC(C)=O)CC[C@]3(C)[C@H]3CC[C@]45C[C@]4(CC[C@H]5[C@@H](C)C[C@@H](O)[C@H](O)C(C)(C)F)[C@@]32C)C(O)C(O)C1O (stereo partly drawn) reaches 20 µM or more?
result: false

query: Could you tell me if the measured TGI of O=C1c2c(ccc3c2CCC3)CC12Cc1ccccc1C2 reaches 20 µM or more?
result: true

query: Could you tell me if the measured TGI of ONC1=Nc2ccccc2C(=S)N2CSCC12 (stereo not drawn) reaches 20 µM or more?
result: true

query: Could you tell me if the measured TGI of CC1=NN(c2nc(N)nc(C/C(N)=N/O)n2)C(C)(C)C1 reaches 20 µM or more?
result: true

query: Could you tell me if the measured TGI of CC(=O)O[C@@]1(C)[C@@H](C)C(=O)O[C@@H]2CCN3CC=C(COC(=O)[C@]1(C)O)[C@H]23 reaches 20 µM or more?
result: true

query: Could you tell me if the measured TGI of CN(C)CCNC(=O)Cn1cnc2cccc([N+](=O)[O-])c2c1=O reaches 20 µM or more?
result: true

query: Could you tell me if the measured TGI of CCOC(OCC)N1C(=O)C2(C(OCC)OCC)CC3C(OC(=O)N3N)c3cccc1c32 (stereo not drawn) reaches 20 µM or more?
result: true

query: Could you tell me if the measured TGI of COc1ccc(NC(C)=O)c(C(O)CCNC(C)=O)c1 (stereo not drawn) reaches 20 µM or more?
result: true

query: Could you tell me if the measured TGI of CCn1c(-c2nonc2N)nc2c(C#CC(C)(C)O)ncc(OC[C@H]3CCCNC3)c21 reaches 20 µM or more?
result: true

query: Could you tell me if the measured TGI of O=c1[nH]nc(-c2ccccc2)n1/N=C/c1ccccc1Cl reaches 20 µM or more?
result: true

query: Could you tell me if the measured TGI of COc1cc2c(cc1OC)CC1c3cc(OC)c(OC)cc3CCN1CC2 (stereo not drawn) reaches 20 µM or more?
result: true

query: Could you tell me if the measured TGI of Cc1cc(N2CCOCC2)nc(N(CCCNc2ccnc3cc(Cl)ccc23)Cc2ccco2)n1 reaches 20 µM or more?
result: false

query: Could you tell me if the measured TGI of CC(NC(=O)c1ccc(NP(=O)(OCc2ccc([N+](=O)[O-])o2)N(C)CCCCCl)cc1)c1ccc(OCC2CCCCC2)c(C(N)=O)c1 (stereo not drawn) reaches 20 µM or more?
result: true

query: Could you tell me if the measured TGI of CC([C@H]1CCC2C3CCC4C[C@@H](N)CC[C@]4(C)C3CC[C@@]21C)N(C)C (stereo partly drawn) reaches 20 µM or more?
result: false
